The values you see were collected from PubChem BioAssay (NCI).

Test system: SN12C renal
test details: NCI tumour cell line growth inhibition, 48 h
metric: TGI

[
  {
    "compound": "O=c1oc2ccccc2c(O)c1C(c1cccc(C(c2c(O)c3ccccc3oc2=O)c2c(O)c3ccccc3oc2=O)c1)c1c(O)c2ccccc2oc1=O",
    "val": "83 µM"
  },
  {
    "compound": "COc1ccc(C(OCC2OC3(COC(c4ccccc4)(c4ccc(OC)cc4)c4ccc(OC)cc4)C(Oc4nc(=O)ccn43)C2O)(c2ccccc2)c2ccc(OC)cc2)cc1 (configuration not stated)",
    "val": "> 100 µM"
  },
  {
    "compound": "CNCC(=O)NC(CO)C(=O)NC(CO)C(=O)NC1C(C(N)=O)OC(n2ccc(N)nc2=O)C(O)C1O (configuration not stated)",
    "val": "> 50 µg/mL"
  },
  {
    "compound": "COC(=O)c1sc2c(c1C(=O)OC)C(=NC(C)(C)C)SC2=NC(C)(C)C",
    "val": "34.5 µM"
  },
  {
    "compound": "CCCCCCc1cc2cc(-c3cn4c(n3)sc3ccccc34)c(=O)oc2cc1O",
    "val": "> 100 µM"
  }
]

Input line: TGI of COC1(OC)N=C(N)C2(C#N)C(C)=C3NCN(C)N=C3C12C#N (configuration not stated) on SN12C renal?
Output line: > 100 µM

Input line: For SN12C renal, provide TGI of Cc1ccc(Nc2nc(=O)c3c([nH]c4ccccc43)s2)cc1 please.
Output line: 31.6 µM

Input line: Could you share what TGI was measured for O=NN1CCN=C1c1ccc([N+](=O)[O-])cc1 , tested on SN12C renal?
Output line: > 100 µM

Input line: Enter reported TGI observed with SN12C renal for O=C(O)/C(Cl)=C(Cl)/C=N/NC(=O)c1cc2ccccc2cc1O
Output line: > 100 µM

Input line: I'm curious: which TGI was measured for CO[C@@H]1C[C@H]2[C@@H]3CC[C@H]([C@H](C)COC(C)=O)[C@@]3(C)CC[C@@H]2[C@@]2(C)CC[C@H]3C[C@]312 tested on SN12C renal?
Output line: > 100 µM

Input line: Value wanted: TGI (SN12C renal) of entry CC(C)(C)n1c(=O)n(-c2ccccc2)n(C(C)(C)C)c1=O
Output line: > 100 µM

Input line: Short answer please: TGI, SN12C renal, entry CCn1cc(C(=O)N/N=C/c2cccs2)c(=O)c2cc(F)c(N3CCNC(C)C3)c(F)c21 (configuration not stated)
Output line: 2.88 µM

Input line: Recorded TGI for Cc1ccnc2c(NC(C)CCCN)cc(O)c(O)c12 (configuration not stated) with SN12C renal, please?
Output line: 13 µM

Input line: Tell me reported TGI for O=C(N=Nc1c(Cl)c(O)c2ccccc2c1O)C(=O)Nc1cccc(C(F)(F)F)c1 , tested with SN12C renal.
Output line: 3.79 µM

Input line: Identify the measured TGI of C[C@]12Cc3conc3C(O)=C1CC[C@@H]1C2CC[C@@]2(C)C1CC[C@]2(C)O (some centres not stated) for SN12C renal.
Output line: > 100 µM

Input line: Reported TGI for SN12C renal, given C=CCc1oc(C)nc1CCCC ?
Output line: > 100 µM

Input line: Hi! What's the reported TGI for Cc1ccc(C2[C@H]3C(=O)N(c4ccc(Cc5ccc(N6C(=O)[C@@H]7ON(c8ccccc8)C(c8ccc(C)cc8)[C@@H]7C6=O)cc5)cc4)C(=O)[C@H]3ON2c2ccccc2)cc1 (some centres not stated) on SN12C renal?
Output line: > 100 µM

Input line: Could you share what TGI was measured for CC(=O)O[C@@H]1C2=C(C)C3(CC3)[C@@](C)(O)C(=O)C2=C[C@@]1(C)CO , tested on SN12C renal?
Output line: 13.9 µM

Input line: Requested read-out TGI, target or system SN12C renal, entry O=C(COC(=O)c1cccc2c(=O)c3ccccc3[nH]c12)Nc1ccc(Cl)cc1
Output line: > 100 µM

Input line: What value of TGI on SN12C renal does C[C@H](CCC(=O)NCCS(=O)(=O)O)[C@H]1CC[C@H]2[C@@H]3[C@H](O)C[C@@H]4C[C@H](O)CC[C@]4(C)[C@H]3CC[C@]12C have?
Output line: > 100 µM

Input line: Fill in the recorded TGI for this compound, with SN12C renal as test system: COc1ccc(NC(=O)c2oc3cc(O)ccc3c(=O)c2C)c([N+](=O)[O-])c1
Output line: > 100 µM

Input line: What TGI appears in the records for this compound with SN12C renal? C=C1CCC2[C@](C)(CCC[C@]2(C)C(=O)O)[C@@H]1CCc1ccoc1 (some centres not stated)
Output line: > 100 µM
